# target.entity: HIV-1 YU-2 gp120 (HIV-1 (YU-2), UniProt P35961)
# assay.name: SPR
measured.parameter: Kd (nM)
Just the number in nM, nothing appended.

Given the entry Fab m18 Q30A (LCDR1) (Fab, V domains shown) VH: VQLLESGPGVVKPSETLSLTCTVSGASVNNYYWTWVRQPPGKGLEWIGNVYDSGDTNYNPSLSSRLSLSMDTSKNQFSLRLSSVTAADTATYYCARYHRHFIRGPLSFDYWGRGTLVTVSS VL: LQMTQSPSFLSASVGDRVSITCRASQDIAKFLAWYQLTPGDAPKLLMYSASTLQSGVPSRFSGSGSGTEFTLTISGLQPEDFATYYCQHLKRYPYTFGQGTKLEIS , report its measured Kd.
1.4

Given the entry Fab m18 Q27A (LCDR1) (Fab, V domains shown) VH: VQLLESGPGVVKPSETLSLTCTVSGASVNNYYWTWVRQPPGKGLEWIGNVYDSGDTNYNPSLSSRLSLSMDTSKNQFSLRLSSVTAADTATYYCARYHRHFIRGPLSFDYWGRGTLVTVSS VL: LQMTQSPSFLSASVGDRVSITCRASADIQKFLAWYQLTPGDAPKLLMYSASTLQSGVPSRFSGSGSGTEFTLTISGLQPEDFATYYCQHLKRYPYTFGQGTKLEIS , report its measured Kd.
6.7

Just for reference, paper PMC3499988 is where these values come from.
